Entry source: PubChem BioAssay (NCATS)

Test system: KB-3-1
Experiment: Cytotoxic Profiling of Annotated Libraries Using Quantitative High-Throughput Screening (AID 1296008); further: nearly all actives have a fitted effect of over 60% in size; further: potency means the concentration at half of the fitted maximal effect
Conditions: Five cell lines viability, CellTiter-Glo ATP luminescence, 48-72 h
Results filed as inconclusive are left out. The source made the active and inactive calls. The call rests on the fitted dose curve; in most records, active means well fitted inhibition curve with a large enough effect; inconclusive means small, poorly fitted or top-dose-only effect; inactive means flat fitted curve, though single readings scatter.

{"columns": ["COMPOUND", "TEST SYSTEM", "Potency"],
 "data": [
  ["O=C(NCc1ccc(S(=O)(=O)c2cc(F)cc(F)c2)cc1)c1ccc2nccn2c1", "KB-3-1", "0.0046 µM (active)"],
  ["CC(=O)O[C@H]1[C@@H](O)[C@H](O[C@H]2[C@@H]3C=CO[C@@H](O[C@H]4O[C@@H](CO)[C@H](O)[C@@H](O)[C@@H]4O)[C@@H]3[C@@]3(CO)O[C@@H]23)O[C@@H](C)[C@@H]1OC(=O)/C=C/c1ccccc1", "KB-3-1", "inactive"],
  ["CC/C=C\\CC1C(=O)C=CC1(CCCCCCCC(=O)O)OC(C)=O (configuration not stated)", "KB-3-1", "inactive"],
  ["O=C(Nc1c(-c2cccs2)nc2ccccn12)c1ccc(Cl)cc1", "KB-3-1", "inactive"],
  ["CCOc1cc(C(=O)N2CCC(N3CCN(C)CC3)CC2)ccc1Nc1ncc2c(n1)N(C1CCCC1)c1ccccc1C(=O)N2C", "KB-3-1", "23.1 µM (active)"],
  ["C/C1=C\\CC[C@H](C)CCO[C@@H]2O[C@H](CO[C@@H]3OC[C@](O)(COC1=O)[C@H]3O)[C@@H](O)[C@H](O)[C@H]2O", "KB-3-1", "inactive"],
  ["C=C[C@H]1C(O[C@@H]2O[C@H](CO)[C@@H](O)[C@H](O)[C@H]2O)OC=C2C(=O)N3CCc4c([nH]c5ccccc45)C3CC21 (some centres not stated)", "KB-3-1", "inactive"]
]}

----------
System: HaCat
Assay: Cytotoxic Profiling of Annotated Libraries Using Quantitative High-Throughput Screening (AID 1296008); further: nearly all actives have a fitted effect of over 60% in size
Conditions: Five cell lines viability, CellTiter-Glo ATP luminescence, 48-72 h
Inconclusive results are not listed. Calls of active or inactive are those of the source. Calls follow the shape of the dose curve; as a rule, active = well fitted inhibition curve with a large enough effect; inconclusive = small, poorly fitted or top-dose-only effect; inactive = flat fitted curve, though single readings scatter.
Classes used: true = active, false = inactive

{"columns": ["COMPOUND", "LABEL CLASS"],
 "data": [
  ["COc1cc2c(cc1OC)-c1[nH]nc(Nc3cccc(F)c3)c1C2", "true"],
  ["CC1(C)CC[C@]2(C(=O)O[C@@H]3O[C@H](CO)[C@@H](O)[C@H](O)[C@H]3O)CC[C@]3(C)C(=CCC4[C@@]5(C)CC[C@H](O[C@@H]6O[C@H](C(=O)O)[C@@H](O)[C@H](O)[C@H]6O)C(C)(C)C5CC[C@]43C)C2C1 (some centres undefined)", "false"],
  ["COc1ccc(N(C)c2nc(C)nc3ccccc23)cc1", "false"],
  ["CC12CCC(OC3OC(CO)C(O)C(OC4OC(CO)C(O)C(O)C4O)C3O)CC1=CCC1C2CCC2(C)/C(=C3/COC(=O)C3)CCC12O (centres undefined)", "false"]
]}

----------
Molecular target: Cytochrome P450 2D6 (Homo sapiens)
Assay: Cytochrome P450 family 2 subfamily D member 6 (CYP2D6) small molecule antagonists: luciferase biochemical (cell-free) qHTS assay (AID 1645840); further: nearly all actives have a fitted effect of over 55% in size; further: potency means the concentration at half of the fitted maximal effect
Conditions: P450-Glo CYP2D6 enzyme, luciferin luminescence, 1 h; series mostly up to 57.4 µM
Text: National Center for Advancing Translational Sciences [NCATS] Assay Overview: Cytochrome P450 (CYP) enzymes are membrane-bound hemeproteins that play a key role in metabolism of drugs and xenobiotics. Assaying the effect of chemicals on CYP isozymes is useful to minimize the adverse drug reactions and toxicities in drug development process. […] The luciferin products formed are detected with a luciferin detection reagent, and the amount of light produced is proportional to CYP activity. […]
Inconclusive results are not listed. Active and inactive are the calls of the source. Calls come from the whole dose curve; as a rule, active = well fitted inhibition curve with a large enough effect in the repeat runs; inconclusive = weak or mixed curves; inactive = flat fitted curve, though single readings scatter.

{"columns": ["COMPOUND", "Potency"],
 "data": [
  ["CC(C)S(=O)(=O)N[C@H]1CCOC[C@@H]1c1ccc(-c2ccc(C#N)s2)cc1", "10.7 µM (active)"],
  ["Cc1csc(NC(=O)c2ccc(COc3cccc(Cl)c3)o2)n1", "19 µM (active)"],
  ["COc1ccc(-c2cnc(-c3cccc4c3-c3ccccc3C4=O)o2)cc1", "inactive"],
  ["CCc1cc(CN2CC(C(=O)O)C2)sc1-c1noc(-c2ccc(Oc3ccccc3)cc2)n1", "inactive"],
  ["CCOC(=O)c1cc(C#N)c(N2CCC(C(=O)NS(=O)(=O)Cc3ccccc3)CC2)nc1C", "inactive"],
  ["Cc1cnc(NC(=O)Nc2cc(Br)c(C)cc2OCC2CNCCO2)cn1 (stereo not drawn)", "12 µM (active)"],
  ["O=C(Cc1ccc(-c2ccccc2)cc1)NC1CCC1", "inactive"],
  ["CN(C)C/C=C/C(=O)Nc1cc2c(Nc3ccc(F)c(Cl)c3)ncnc2cc1OC1CCOC1 (stereo not drawn)", "inactive"],
  ["CCc1cccc(CC)c1NC(=O)c1nn(C)c2c1CCc1cnc(Nc3ccc(C(=O)NC4CCN(C)CC4)cc3OC(F)(F)F)nc1-2", "9.28 µM (active)"],
  ["CON(C)C(=O)[C@H](O)[C@H](Cc1ccccc1)NC(=O)c1cc2cc(Cl)ccc2[nH]1", "21.3 µM (active)"],
  ["CC(C)(C)NS(=O)(=O)c1cncc(-c2cc(F)c3nc(N)nn3c2)c1", "inactive"],
  ["CCS(=O)(=O)N1CCN(c2ccc(Nc3ncc(C(N)=O)c(NC4CC4)n3)cc2)CC1", "inactive"],
  ["N#CC(c1ccnc(OCc2ccc(CN3CCOCC3)cc2)n1)c1nc2ccccc2s1 (stereo not drawn)", "inactive"],
  ["Cc1ccc(-c2ccc3c(ccc4sc5c(c43)NC[C@@H](C)NC5=O)n2)cn1", "inactive"],
  ["CNC(=O)c1ccccc1Nc1nc(Nc2ccc(N3CCNCC3)cc2)ncc1Cl", "inactive"],
  ["N#Cc1ccc(-c2cnc3[nH]cc(NC(=O)c4cccnc4)c3c2)cc1", "inactive"],
  ["COc1cccc(Nc2ncnn3ccc(CN4CC[C@@H](N)[C@H](O)C4)c23)c1", "9.52 µM (active)"],
  ["NC(=O)c1cnc(NCCc2ccc(O)c(Cl)c2)nc1NCc1ccccc1", "15.1 µM (active)"],
  ["CN(C)c1nc(NC2CCC(NCCc3ccc(Br)cc3OC(F)(F)F)CC2)nc2ccccc12 (stereo not drawn)", "2.68 µM (active)"],
  ["Cc1nc2sc(C(=O)NCc3ccncc3)c(N)c2c(C)c1Cl", "2.39 µM (active)"],
  ["COc1cc(O)c([C@@H](CC(=O)N2CC(C)CC(C)C2)c2ccc3c(c2)OCO3)c(OC)c1 (stereo partly drawn)", "19 µM (active)"],
  ["CC(=O)NC1=NN(C(C)=O)C(C)(c2ccccc2)S1 (stereo not drawn)", "inactive"],
  ["CC(C)[C@@H]1C(=O)N(S(C)(=O)=O)[C@@H]2CCN(C(=O)/C=C/CN3CCCCC3)[C@H]21", "inactive"],
  ["O=C(O)c1ccccc1NCCc1ccccc1", "11 µM (active)"],
  ["C=CC(=O)Nc1cccc(Nc2nc(Nc3ccc(N4CCN(C(C)=O)CC4)cc3OC)ncc2C(F)(F)F)c1", "inactive"],
  ["CCN1CCN(Cc2ccc(NC(=O)Nc3ccc(Oc4cc(NC)ncn4)cc3)cc2C(F)(F)F)CC1", "10.7 µM (active)"],
  ["COc1ccc(-c2ccc(-c3cn(C(=O)N4CCCCC4c4ccccc4)nn3)cc2)cc1 (stereo not drawn)", "inactive"],
  ["COc1cc2c(NC3CCN(CC4CCCCC4)CC3)nc(N3CCCN(C(C)C)CC3)nc2cc1OCCCN1CCCCC1", "12 µM (active)"],
  ["CCCCc1ccc(C(=O)Nc2cc(-c3ccc(Cl)cc3)nn2-c2ccc(Cl)cc2)cc1", "inactive"],
  ["CC(C)c1cc(CNc2nc(Nc3cc(C4CC4)[nH]n3)cc(N3CCN(C)CC3)n2)on1", "2.68 µM (active)"],
  ["O=C(CCCCN1CCOCC1)Nc1ccc(-c2cccnc2)cc1", "6.01 µM (active)"],
  ["CCCN1CCC(c2cccc(S(C)(=O)=O)c2)CC1", "8.49 µM (active)"],
  ["COc1ccc(-c2ccc3c(N4CCOCC4)nc(N4CC(C)OC(C)C4)nc3n2)cc1CO (stereo not drawn)", "inactive"]
]}
